Listed here: items and their measured pIC50.
Target: T1, human B7-H4 extracellular domain (human, UniProt Q7Z7D3 29-258)
T1 construct: For SPR it says only human B7-H4 ECD; also called Hu B7-H4 ECD; huB7-H4 ECD
T1 sequence: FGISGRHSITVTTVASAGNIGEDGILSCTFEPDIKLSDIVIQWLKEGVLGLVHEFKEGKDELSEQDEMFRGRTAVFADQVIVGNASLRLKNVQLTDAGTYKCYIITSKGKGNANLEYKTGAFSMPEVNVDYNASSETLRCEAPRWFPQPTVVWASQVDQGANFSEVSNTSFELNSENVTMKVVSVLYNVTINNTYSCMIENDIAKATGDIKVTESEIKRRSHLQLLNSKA
Assay: competition ELISA on coated huB7-H4 ECD; competitor biotinylated 0058 (by series, not given)
Scale: negative log10 of molar concentration, which is what pIC50 denotes.

- binder: "B7-H4 antibody 0571 (antibody, human IgG1, kappa, V domains shown) VH: EVQLLESGGGLVQPGGSLRLSCAASGFTFSSYAMSWVRQAPGKGLEWVSAISGGGGSTYYADSVKGRFTISRDNSKNTLYLQMNSLRAEDTAVYYCARDIQWFGESTLFDYWGQGTLVTVSS VL: DIQMTQSPSSLSASVGDRVTITCRASQSTRSWLAWHQQKPGKAPKLLIYKASSLESGVPSRFSGSGSGTDFTLTISSLQPEDFATYYCQQYGSYSRTFGQGTKVEIKR"
  pIC50: 8.68
- binder: "B7-H4 antibody 0567 (antibody, human IgG1, kappa, V domains shown) VH: EVQLLESGGGLVQPGGSLRLSCAASGFTFSSYAMSWVRQAPGKGLEWVSAISGGGGSTYYADSVKGRFTISRDNSKNTLYLQMNSLRAEDTAVYYCARDIQWFGESTLFDYWGQGTLVTVSS VL: DIQMTQSPSSLSASVGDRVTITCRASQSTRSHLAWYQQKPGKAPKLLIYKASSLEGGVPSRFSGSGSGTDFTLTISSLQPEDFATYYCQQYGSYSRTFGQGTKVEIKR"
  pIC50: 8.27

Let us examine a further case.
Data request, read-out pIC50, for B7-H4 antibody 1115 (antibody, human IgG1, kappa, V domains shown) VH: EVQLLESGGGLVQPGGSLRLSCAASGFTFSSYAMSWVRQAPGKGLEWVSAISGGGGSTYYADSVKGRFTISRDNSKNTLYLQMNSLRAEDTAVYYCARDIQWYGESTLFDYWGQGTLVTVSS VL: DIQMTQSPSSLSASVGDRVTITCRASQSTRSWLAWYQQKPGKAPKLLIYKASSLESGVPSRFSGSGSGTDFTLTISSLQPEDFATYYCQQYGSYSRTFGQGTKVEIKR
9.38
